Exercise: for every item that follows, state its recorded AC50.
biological target: UniProt:P37288
Sequence (P37288 whole entry): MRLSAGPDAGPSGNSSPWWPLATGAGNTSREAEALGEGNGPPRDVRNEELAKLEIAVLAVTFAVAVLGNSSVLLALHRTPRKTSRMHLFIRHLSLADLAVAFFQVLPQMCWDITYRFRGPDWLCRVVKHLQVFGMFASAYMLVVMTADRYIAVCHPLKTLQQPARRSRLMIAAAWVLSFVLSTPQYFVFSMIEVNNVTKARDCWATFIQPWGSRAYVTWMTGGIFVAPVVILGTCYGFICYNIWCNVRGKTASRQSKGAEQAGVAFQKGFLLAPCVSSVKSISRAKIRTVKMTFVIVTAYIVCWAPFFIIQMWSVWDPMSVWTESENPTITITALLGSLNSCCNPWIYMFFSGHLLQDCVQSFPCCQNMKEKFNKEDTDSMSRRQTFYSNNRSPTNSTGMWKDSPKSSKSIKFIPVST

// below: answered compounds
- COMPOUND: "CN1C(=O)CC(C)(c2ccccc2)C1=O (stereo not drawn) [METHSUXIMIDE]"
  AC50: "> 10 µM"
- COMPOUND: "C[N+](C)(C)CCOC(N)=O"
  AC50: "> 10 µM"
- COMPOUND: "CN1CC[C@]23CCCC[C@H]2[C@H]1Cc1ccc(O)cc13"
  AC50: "> 10 µM"
- COMPOUND: "COc1ccc(C(=O)N2CCN(c3ccc4c(c3)CCC(=O)N4)CC2)cc1OC"
  AC50: "> 30 µM"
- COMPOUND: "O=C1CCC(N2C(=O)c3ccccc3C2=O)C(=O)N1 (stereo not drawn) [THALIDOMIDE]"
  AC50: "> 10 µM"
- COMPOUND: "CC1=CC(=O)c2ccccc2C1=O"
  AC50: "> 10 µM"

Provide AC50 values for the following items, in order.
1. CN(CCOc1ccc(NS(C)(=O)=O)cc1)CCc1ccc(NS(C)(=O)=O)cc1 [DOFETILIDE]
2. CCOc1cc(N)c([N+](=O)[O-])cc1C(=O)NC1CCN(CC2CC=CCC2)CC1 (stereo not drawn) [CINITAPRIDE]
3. CC(C)(N)Cc1ccc(Cl)cc1
4. CN(CCCN1c2ccccc2CCc2ccccc21)CC(=O)c1ccc(Cl)cc1

1: > 10 µM; 2: > 30 µM; 3: > 30 µM; 4: > 30 µM

Provide AC50 values for the following items, in order.
1. CN1CCC2=C(C1)C(c1ccccc1)c1ccccc12 (stereo not drawn)
2. C[C@H]1C[C@@H]2[C@H]([C@@H](O)C[C@@]3(C)[C@H]2CC[C@]3(O)C(=O)COC(=O)CCC(=O)O)[C@@]2(C)C=CC(=O)C=C12 [METHYLPREDNISOLONE HEMISUCCINATE]
3. CCCC(=O)N1CCCN(c2nc(N)c3cc(OC)c(OC)cc3n2)CC1
4. CC(C)c1c(C(=O)Nc2ccccc2)c(-c2ccccc2)c(-c2ccc(F)cc2)n1CC[C@@H](O)C[C@@H](O)CC(=O)O
5. O=C(Cn1ccnc1[N+](=O)[O-])NCc1ccccc1
6. CC(C(=O)O)c1ccc(N2CC=CC2)c(Cl)c1 (stereo not drawn)
7. CN(C)C(=O)OC1N=C(c2ccccc2)c2cc(Cl)ccc2N(C)C1=O (stereo not drawn)
8. COC(=O)N[C@H](C(=O)N1CCC[C@H]1c1nc(-c2ccc(-c3ccc(-c4c[nH]c([C@@H]5CCCN5C(=O)[C@@H](NC(=O)OC)C(C)C)n4)cc3)cc2)c[nH]1)C(C)C

> 10 µM
> 30 µM
> 30 µM
> 30 µM
> 30 µM
> 10 µM
> 10 µM
> 30 µM
